The measurements presented in this section are drawn from ChEMBL document CHEMBL3272319.

Assay: Acute toxicity in ip dosed JCL-ICR mouse assessed as animal death
Format: organism-based
Settings: JCL-ICR, in vivo
Kindly supply the reported LD50 values for the records listed here.
Respond numerically; units are mg/kg and should not be typed.

Incoming: Returns the measured LD50 for the input compound. Input: CCCCO[C@@H]1O[C@H](CO)[C@@H](O)[C@H](O)[C@H]1NC(=O)N(C)N=O
Outgoing: 1580

Incoming: Quick one: LD50 for CCN(N=O)C(=O)N[C@H]1[C@H](OC)O[C@H](CO)[C@@H](O)[C@@H]1O ?
Outgoing: 1700

Incoming: Fill in: LD50 of CO[C@H]1O[C@H](CO)[C@@H](O)[C@H](O)[C@H]1NC(=O)N(C)N=O is ___
Outgoing: 1930

Incoming: // LD50 lookup, key: CCCO[C@H]1O[C@H](CO)[C@@H](O)[C@H](O)[C@H]1NC(=O)N(C)N=O
Outgoing: 1470

Incoming: Which measured LD50 value corresponds to CO[C@@H]1O[C@H](CO)[C@@H](O)[C@H](O)[C@H]1NC(=O)N(C)N=O ?
Outgoing: 1700

Incoming: State the recorded LD50 for this entry: CCCCO[C@H]1O[C@H](CO)[C@@H](O)[C@H](O)[C@H]1NC(=O)N(CCCC)N=O
Outgoing: 660

Incoming: Which value of LD50 has been reported for CCCO[C@@H]1O[C@H](CO)[C@@H](O)[C@H](O)[C@H]1NC(=O)N(C)N=O in the records?
Outgoing: 2150

Incoming: Please give the measured LD50 for this compound: CCO[C@H]1O[C@H](CO)[C@@H](O)[C@H](O)[C@H]1NC(=O)N(C)N=O
Outgoing: 2050

Incoming: Give the measured LD50 of CCO[C@@H]1O[C@H](CO)[C@@H](O)[C@H](O)[C@H]1NC(=O)N(C)N=O .
Outgoing: 2050

Incoming: Requested field: LD50. Item: CN(N=O)C(=O)N[C@@H](C=O)[C@@H](O)[C@H](O)[C@H](O)CO
Outgoing: 360

Incoming: Field request: LD50 | item: CCCCO[C@H]1O[C@H](CO)[C@@H](O)[C@H](O)[C@H]1NC(=O)N(C)N=O
Outgoing: 2000

====

Test system: Rattus norvegicus
Experiment: Diabetogenic activity in iv dosed Wistar rat assessed as increase in blood sugar level administered as single dose by glucose oxidase method
Assay type: ADME, organism-based
Details: in vivo
Quantity: Activity

| Smiles record | Tgt | Reported |
| --- | --- | --- |
| CCCO[C@H]1O[C@H](CO)[C@@H](O)[C@H](O)[C@H]1NC(=O)N(C)N=O | Rattus norvegicus | Non-toxic |
| CCCCN(N=O)C(=O)N[C@H]1[C@H](OC)O[C@H](CO)[C@@H](O)[C@@H]1O | Rattus norvegicus | Non-toxic |
| CCCN(N=O)C(=O)N[C@H]1[C@@H](OC)O[C@H](CO)[C@@H](O)[C@@H]1O | Rattus norvegicus | Non-toxic |

====

Tested on: Rattus norvegicus
Experiment: Diabetogenic activity in iv dosed Wistar rat assessed as increase in blood sugar level administered as single dose by glucose oxidase method
Assay type: ADME, organism-based
Details: in vivo
Quantity: Activity

| Smiles record | Tgt | Reported |
| --- | --- | --- |
| CCO[C@H]1O[C@H](CO)[C@@H](O)[C@H](O)[C@H]1NC(=O)N(CC)N=O | Rattus norvegicus | Non-toxic |
| CCCCO[C@H]1O[C@H](CO)[C@@H](O)[C@H](O)[C@H]1NC(=O)N(C)N=O | Rattus norvegicus | Non-toxic |
| CCCCO[C@H]1O[C@H](CO)[C@@H](O)[C@H](O)[C@H]1NC(=O)N(CCCC)N=O | Rattus norvegicus | Non-toxic |
| CCO[C@@H]1O[C@H](CO)[C@@H](O)[C@H](O)[C@H]1NC(=O)N(CC)N=O | Rattus norvegicus | Non-toxic |
| CCCCN(N=O)C(=O)N[C@H]1[C@@H](OC)O[C@H](CO)[C@@H](O)[C@@H]1O | Rattus norvegicus | Non-toxic |

Incoming: I have this molecule here, CCCCO[C@@H]1O[C@H](CO)[C@@H](O)[C@H](O)[C@H]1NC(=O)N(C)N=O , and I need its recorded Activity.
Outgoing: Non-toxic

Incoming: I'd like to know its Activity. The molecule in question is CCO[C@H]1O[C@H](CO)[C@@H](O)[C@H](O)[C@H]1NC(=O)N(C)N=O
Outgoing: Non-toxic

Incoming: Please look up its Activity: CCN(N=O)C(=O)N[C@H]1[C@H](OC)O[C@H](CO)[C@@H](O)[C@@H]1O
Outgoing: Non-toxic

Incoming: What does the record list as Activity for CCCN(N=O)C(=O)N[C@H]1[C@H](OC)O[C@H](CO)[C@@H](O)[C@@H]1O ?
Outgoing: Non-toxic

====

Tested on: Mus musculus
Test: Acute toxicity in ip dosed JCL-ICR mouse assessed as animal death
Type: organism-based
Details: in vivo
Quantity: LD10 (mg/kg)
Report the figure in mg/kg without appending any unit label.

Incoming: Returns the measured LD10 for the input molecule. Input: CCO[C@@H]1O[C@H](CO)[C@@H](O)[C@H](O)[C@H]1NC(=O)N(C)N=O
Outgoing: 1550

Incoming: Using the record for CCCCO[C@H]1O[C@H](CO)[C@@H](O)[C@H](O)[C@H]1NC(=O)N(CCCC)N=O , report its LD10.
Outgoing: 410

Incoming: Dear colleague, I am looking for the recorded LD10 of the following molecule: CO[C@H]1O[C@H](CO)[C@@H](O)[C@H](O)[C@H]1NC(=O)N(C)N=O
Outgoing: 1380

Incoming: Need LD10, item CCCCO[C@@H]1O[C@H](CO)[C@@H](O)[C@H](O)[C@H]1NC(=O)N(C)N=O
Outgoing: 1100

Incoming: Would you kindly share the measured LD10 for CCCO[C@H]1O[C@H](CO)[C@@H](O)[C@H](O)[C@H]1NC(=O)N(C)N=O ?
Outgoing: 1020

Incoming: # get_value(readout='LD10', item= CO[C@@H]1O[C@H](CO)[C@@H](O)[C@H](O)[C@H]1NC(=O)N(C)N=O )
Outgoing: 800

Incoming: Consider the molecule CCCO[C@@H]1O[C@H](CO)[C@@H](O)[C@H](O)[C@H]1NC(=O)N(C)N=O and give its measured LD10.
Outgoing: 1240

Incoming: // returns reported LD10 for input CN(N=O)C(=O)N[C@@H](C=O)[C@@H](O)[C@H](O)[C@H](O)CO
Outgoing: 235

Incoming: Suppose we examine the molecule CCN(N=O)C(=O)N[C@H]1[C@H](OC)O[C@H](CO)[C@@H](O)[C@@H]1O ; what LD10 value has been reported?
Outgoing: 1380

Incoming: Given CCCCO[C@H]1O[C@H](CO)[C@@H](O)[C@H](O)[C@H]1NC(=O)N(C)N=O , state its recorded LD10.
Outgoing: 1200

Incoming: What does the data say about its LD10? Entry: CCO[C@H]1O[C@H](CO)[C@@H](O)[C@H](O)[C@H]1NC(=O)N(C)N=O
Outgoing: 2000
